The variants listed here are annotated with their self-cleavage.
B1: OR4K15 (parent)
chain: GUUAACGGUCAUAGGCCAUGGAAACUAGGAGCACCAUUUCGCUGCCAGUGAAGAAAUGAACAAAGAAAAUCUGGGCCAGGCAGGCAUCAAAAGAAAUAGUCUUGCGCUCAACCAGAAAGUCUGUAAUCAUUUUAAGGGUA

variants of: B1; test: self-cleavage, relative activity (ratio to wild type); higher = more cleavage; in vitro, sequencing; the parent is a self-cleaving ribozyme
quantity_measured: self-cleavage

variant_description	value
A47U U100C	2.2
U57C A94G	1.62
U39C C81G	0.16
U57C G75A	0.12
G28A	1.09
C109U U120C	0.15
A68G U130A	0.91
A89U U108C	0.02
A5C A23G	1.28
U131C A135C	1.02
U19C U72C	0.25
A78G A82U	0.19
G106C U127C	0
C16A A126G	1.2
A4G A96C	0.67
U2C A66U	0.2
G15A U139C	1.3
U102C C105U	1.01
U9C	1.61
A55G A62U	1.41
A30G A54G	1.21
A117U A126G	0.89
U12C A89G	1.35
U38C A62G	1.37
G75A A95G	0.05
A13G C34G	0.83
U97A A116G	1.19
C46U U127C	0.86
A47G A62G	0.63
A114G A117G	0.37
A90U	1.96
U37A U38G	2.08
U37C U43G	1.46
A11G U127A	1.17
A134U U139A	1.59
U38C A89C	1.6
A91G A114G	0.25
U9C U130C	1.05
U39C A118G	1.71
A62C U72C	0.26
A54G A89G	1.55
A30U A54C	1.77
U38A U130C	1.47
A23C G83A	2.28
A5C A47G	1.1
A47U A95G	1.25
